Sourced from PubChem BioAssay (Tox21)

# tested-on: Nuclear receptor subfamily 1 group I member 3 (Homo sapiens) (UniProt Q14994)
# Sequence (Q14994 whole entry, looked up): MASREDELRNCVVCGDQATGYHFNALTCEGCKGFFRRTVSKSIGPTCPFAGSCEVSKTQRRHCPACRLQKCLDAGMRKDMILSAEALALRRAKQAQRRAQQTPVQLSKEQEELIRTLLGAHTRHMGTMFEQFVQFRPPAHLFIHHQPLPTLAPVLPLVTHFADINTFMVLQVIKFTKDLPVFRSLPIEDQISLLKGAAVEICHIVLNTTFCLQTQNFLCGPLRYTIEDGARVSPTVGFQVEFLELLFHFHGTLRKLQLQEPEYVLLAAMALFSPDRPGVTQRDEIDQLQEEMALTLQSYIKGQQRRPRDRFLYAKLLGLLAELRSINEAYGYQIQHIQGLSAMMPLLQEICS
# test-protocol: qHTS assay to identify small molecule antagonists of the constitutive androstane receptor (CAR) signaling pathway (AID 1224838);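 note: HepG2 cells stably expressing hCAR with CYP2B6 luciferase reporter stimulated by CITCO; nearly all actives have a fitted effect of over 40% in size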
# recorded-conditions: HepG2-CYP2B6-hCAR luciferase, CITCO-stimulated, 24 h; series mostly up to 92.4 µM
Results filed as inconclusive are left out. Activity calls are given as the source filed them. Calls come from the whole dose curve; as a rule, active = well fitted inhibition curve with a large enough effect in the repeat runs; inconclusive = weak or mixed curves, or effect the other way; inactive = no such curve, though single readings can be large or run the other way.
# valid calls are Yes = active, No = inactive; nothing else

# molecule, tested-on, discrete-label
rows = [
    ("CCOP(=S)(OCC)SCn1nnc2ccccc2c1=O", "Nuclear receptor subfamily 1 group I member 3 (Homo sapiens) (UniProt Q14994)", "No"),
    ("CNP(=O)(OC)Oc1ccc(C(C)(C)C)cc1Cl (configuration not stated)", "Nuclear receptor subfamily 1 group I member 3 (Homo sapiens) (UniProt Q14994)", "No"),
    ("COc1cc(CC(C)N)cc2c1OCO2 (configuration not stated)", "Nuclear receptor subfamily 1 group I member 3 (Homo sapiens) (UniProt Q14994)", "No"),
]

Shifting focus to the molecule that follows.
State the result this test recorded for "CN1C[C@H](CNC(=O)OCc2ccccc2)C[C@@H]2c3cccc4c3c(cn4C)C[C@H]21" . No
